# Tested on: early third-instar larvae of Ae. aegypti
# method-summary: Direct-contact mortality bioassay, Ae. aegypti larvae
# assay-setup: early third-instar larvae, 24 h exposure, direct contact
property-label: LC50 (Ae. aegypti), mg/L (95% CL)

### Prompt What value of LC50 (Ae. aegypti), mg/L (95% CL) has been recorded for this entry: C=C(C)[C@H]1CC=C(C)C(=O)C1 [(S)-(+)-carvone]
### Response 42.14 (39.62–44.62) mg/L

### Prompt What value of LC50 (Ae. aegypti), mg/L (95% CL) has been recorded for this entry: CC1(C)C2CC=C(CO)C1C2 (single isomer, unassigned; (-)) [(−)-myrtenol]
### Response >150 mg/L

### Prompt What value of LC50 (Ae. aegypti), mg/L (95% CL) has been recorded for this entry: CC(C)=CCCC(C)CCO (stereo not drawn) [(+)-β-citronellol]
### Response 93.46 (85.80–101.82) mg/L

### Prompt What value of LC50 (Ae. aegypti), mg/L (95% CL) has been recorded for this entry: CC1=CCC(O)(C(C)C)CC1 (single isomer, unassigned; (+)) [(+)-terpinen-4-ol]
### Response 78.73 (71.24–85.73) mg/L

###

Kindly supply the reported LC50 (Ae. aegypti), mg/L (95% CL) values for the records listed here.
# System: early third-instar larvae of Ae. aegypti
# method-summary: Direct-contact mortality bioassay, Ae. aegypti larvae
# assay-setup: early third-instar larvae, 24 h exposure, direct contact

### Prompt What value of LC50 (Ae. aegypti), mg/L (95% CL) has been recorded for this entry: CC1=C[C@H](O)[C@H]2C[C@@H]1C2(C)C (relative stereo) [(S)-cis-verbenol]
### Response >150 mg/L

### Prompt What value of LC50 (Ae. aegypti), mg/L (95% CL) has been recorded for this entry: CC(C)=CCCC(C)CCO (stereo not drawn) [(−)-β-citronellol]
### Response 75.31 (68.31–83.22) mg/L

### Prompt What value of LC50 (Ae. aegypti), mg/L (95% CL) has been recorded for this entry: CC1(C)[C@@H]2CC[C@H](CO)[C@H]1C2 (relative stereo) [(−)-cis-myrtanol]
### Response >150 mg/L

### Prompt What value of LC50 (Ae. aegypti), mg/L (95% CL) has been recorded for this entry: CC(C)=CCCC(C)CC=O (single isomer, unassigned; (+)) [(+)-citronellal]
### Response 48.23 (42.42–55.64) mg/L

### Prompt What value of LC50 (Ae. aegypti), mg/L (95% CL) has been recorded for this entry: Cc1ccccc1C(C)C [o-cymene]
### Response 39.60 (33.25–46.71) mg/L

### Prompt What value of LC50 (Ae. aegypti), mg/L (95% CL) has been recorded for this entry: CC(=O)OC(C)(C)C1CC=C(C)CC1 (stereo not drawn) [Terpinyl acetate]
### Response 96.32 (89.89–103.04) mg/L

### Prompt What value of LC50 (Ae. aegypti), mg/L (95% CL) has been recorded for this entry: C=C1CC[C@@H]2[C@H]([C@@H]3[C@H](C)CC[C@@H]13)C2(C)C [Aromadendrene]
### Response >150 mg/L

### Prompt What value of LC50 (Ae. aegypti), mg/L (95% CL) has been recorded for this entry: C/C1=C\CC/C(C)=C/CC(C)(C)/C=C/C1 [α-humulene]
### Response >150 mg/L

### Prompt What value of LC50 (Ae. aegypti), mg/L (95% CL) has been recorded for this entry: C=C1CC[C@H]2O[C@]2(C)CC[C@@H]2[C@@H]1CC2(C)C [Caryophyllene oxide]
### Response 113.00 (104.54–123.59) mg/L
